B1: Ankyrin repeat and SAM domain-containing protein 6, residues 774 to 836; numbered along this chain, Q68DC2 (parent)
chain: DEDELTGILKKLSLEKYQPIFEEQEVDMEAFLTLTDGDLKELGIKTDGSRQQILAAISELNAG

# Variants of: B1
# Assay protocol: abundance fitness (aPCA) (normalised: wild type 0, dead -1); higher = more abundant; growth selection in yeast, the domain comes from the species named
# Test context: Homo sapiens
Returns one of 1.0 or 0.0; 1.0 when abundance fitness is >= -0.2.

The following variants have reported results that may help.
1. DEDELTGILKKLSLEKYQPIFEEQEVDMENFLTLTDGDLKELGIKTDGSRQQILAAISELNAG	1.0
2. TEDELTGILKKLSLEKYQPIFEEQEVDMEAFLTLTDGDLKELGIKTDGSRQQILAAISELNAG	1.0

Could you verify whether the entry `DEDELTFILKKLSLEKYQPIFEEQEVDMEAFLTLTDGDLKELGIKTDGSRQQILAAISELNAG` shows abundance fitness of no less than -0.2? 1.0

Could you verify whether the entry `DEDELTGILKKLSLEKYQPIFEEQEVDSEAFLTLTDGDLKELGIKTDGSRQQILAAISELNAG` shows abundance fitness of no less than -0.2? 1.0

Could you verify whether the entry `DEDELTGILKKLSLEKYQPIFEEQEVDMEAFLTLTDGDLKELGIKSDGSRQQILAAISELNAG` shows abundance fitness of no less than -0.2? 1.0

Could you verify whether the entry `DEDELTGILKKLSLEKYQPIFEEQEVDMEAFLTLTDGDLKGLGIKTDGSRQQILAAISELNAG` shows abundance fitness of no less than -0.2? 1.0

Could you verify whether the entry `DEDFLTGILKKLSLEKYQPIFEEQEVDMEAFLTLTDGDLKELGIKTDGSRQQILAAISELNAG` shows abundance fitness of no less than -0.2? 1.0
